# key: entry, value: inhibition
- System: emLYPLA2
- ASSAY_OVERVIEW: LYPLA1 and LYPLA2 inhibitors, biochemical, gel-based ABPP, fluorescence, recombinant and endogenous enzyme (AID 493105)
- TEST_CONDITIONS: fluorescent probe labeling, membrane fraction, at 20 µM, active compounds read high
READOUT_LABEL: inhibition (%)

O=C(CN1CCN(C(=O)c2ccco2)CC1)Nc1cc(Cl)ccc1Cl: 0
COc1cc(COc2ccc3c(C)c(Cc4ccccc4)c(=O)oc3c2)cc(OC)c1OC: 4
O=C(COc1ccc(Cl)cc1)N1CCN(c2cccc(C(F)(F)F)c2)CC1: 9
O=C(NC(=S)Nc1sc2c(c1C(=O)O)CCCC2)c1ccccc1: 52
COc1ccc(-n2nc(C(=O)NCC(=O)N3CCN(c4cccc(Cl)c4)CC3)c3ccccc3c2=O)c(OC)c1: 83
O=C(COc1ccc(Cl)cc1)N1CCN(C/C=C/c2ccccc2)CC1: 25
COc1ccc(OCC(O)CN2CCC(CN3C(=O)c4cccc5cccc(c45)C3=O)CC2)cc1 (stereo not given): 16
COc1cc(/C=N/N2CCN(Cc3ccc(Cl)cc3)CC2)cc(Br)c1O: 0
O=C(C1CCC(Cn2c(=S)[nH]c3ccccc3c2=O)CC1)N1CCN(c2ccccc2)CC1 (stereo not given): 8
N#Cc1c(N)nc(SCc2ccncc2)c(C#N)c1-c1cccs1: 16
COc1ccc(N2CCN(C(=O)CNC(=O)c3cn(-c4ccccc4OC)c(=O)c4ccccc34)CC2)cc1: 34
C/C(=C\c1ccccc1)CN1CCN(c2cccc(Cl)c2)CC1: 0
COc1ccc(-n2nc(C(=O)NCC(=O)N3CCN(Cc4ccccc4)CC3)c3ccccc3c2=O)cc1: 43
OC(COc1ccc(Cl)cc1)CN1CCN(c2cccc(Cl)c2)CC1 (stereo not given): 0
O=C(COc1ccc(Cl)cc1)N1CCN(c2ccc([N+](=O)[O-])c(N3CCCCC3)c2)CC1: 10
COc1ccc(C(CNC(=O)COc2ccc(-c3ccccc3)cc2)N2CCOCC2)cc1 (stereo not given): 1
CC1CCc2c(sc(NC(=O)CN3CCN(C(=O)c4ccco4)CC3)c2C#N)C1 (stereo not given): 0
COc1ccc(OC)c(NC(=O)C2CCC(CNc3c(N4CCC(C)CC4)c(=O)c3=O)CC2)c1 (stereo not given): 3
COc1ccccc1-n1cc(C(=O)NCC(=O)N2CCN(Cc3ccccc3)CC2)c2ccccc2c1=O: 52
CCC(=C/c1sc2ccc3ccccc3c2[n+]1C)/C=C1\Sc2ccc3ccccc3c2N1C: 7

###

- Tested on: rhLYPLA2
- ASSAY_OVERVIEW: LYPLA1 and LYPLA2 inhibitors, biochemical, gel-based ABPP, fluorescence, recombinant and endogenous enzyme (AID 493105)
- TEST_CONDITIONS: fluorescent probe labeling, membrane fraction, at 20 µM, active compounds read high
Mark condition not met for inhibition values under 3%, and condition met for everything at or above.

CSc1ccccc1OCc1cc(C(=O)N2CCC(Oc3cccnc3)CC2)no1: condition met
COc1ccc(-n2nc(C(=O)NCC(=O)N3CCN(Cc4ccccc4)CC3)c3ccccc3c2=O)cc1: condition met
OC(COc1ccc(Cl)cc1)CN1CCN(c2cccc(Cl)c2)CC1 (stereo not given): condition not met
O=C(/C=C/c1ccc(Br)cc1)N1CCN(c2cccc(C(F)(F)F)c2)CC1: condition met
Cc1nn(-c2ccccc2)c(N2CCCC2)c1/C=N/Nc1ccc(S(N)(=O)=O)cc1[N+](=O)[O-]: condition not met
COc1ccc(S(=O)(=O)Nc2ccc(Cc3ccncc3)cc2)cc1C: condition not met
Cc1ccc(N2CCN(C3=NC(=O)/C(=C\c4cccs4)S3)CC2)cc1: condition met
COc1ccc(C(CNC(=O)COc2ccc(-c3ccccc3)cc2)N2CCOCC2)cc1 (stereo not given): condition not met
O=C(CCCCCCN1C(=O)c2ccccc2C1=O)N1CCC(c2ccccc2)C1 (stereo not given): condition not met
Cc1ccc(OCC(=O)N2CCN(c3ccc([N+](=O)[O-])c(N4CCOCC4)c3)CC2)cc1: condition not met
Clc1cccc(N2CCN(CCNc3nc4ccccc4n4cnnc34)CC2)c1: condition not met
CC(NC(=O)c1ccco1)C(=O)N1CCN(c2cccc(C(F)(F)F)c2)CC1 (stereo not given): condition met
COc1cccc(N=C2NC(=O)/C(=C/c3cc([N+](=O)[O-])ccc3O)S2)c1: condition not met
O=C(c1ccc(-c2ccccc2)c(F)c1)C1CCCN(C(=O)c2cncs2)C1 (stereo not given): condition met
O=c1ccc2ccc(Oc3ccc([N+](=O)[O-])cc3Cl)cc2o1: condition met
O=C(c1cc(COc2cccc(C(F)(F)F)c2)on1)N1CCC(Oc2cccnc2)CC1: condition not met
COc1ccc(-n2nc(C(=O)NCC(=O)N3CCN(c4cccc(Cl)c4)CC3)c3ccccc3c2=O)c(OC)c1: condition met
O=C(N1CCOCC1)n1nnc2ccccc21: condition met

###

- Tested on: rhLYPLA2
- ASSAY_OVERVIEW: LYPLA1 and LYPLA2 inhibitors, biochemical, gel-based ABPP, fluorescence, recombinant and endogenous enzyme (AID 493105)
- TEST_CONDITIONS: fluorescent probe labeling, membrane fraction, at 20 µM
Activity calls are given as the source filed them. How the calls were made is not given here.
Outcomes: active, inactive

Cc1ccc(OCC(=O)N2CCN(C(=O)CCC3CCCC3)CC2)cc1: inactive
O=[N+]([O-])c1ccc(N2CCC(=NOCc3ccc(Cl)cc3)CC2)cc1: inactive
O=C(COc1ccc(Cl)cc1)N1CCN(c2ccc([N+](=O)[O-])c(N3CCCCC3)c2)CC1: inactive
COc1ccc(N2CCN(C(=O)C3CCC(Cn4c(=S)[nH]c5ccccc5c4=O)CC3)CC2)cc1 (stereo not given): active
O=C(COc1ccc(Cl)cc1)N1CCN(c2cccc(C(F)(F)F)c2)CC1: inactive
COc1ccc(C(=O)NC(=S)Nc2ccc(N3CCOCC3)c(Cl)c2)cc1[N+](=O)[O-]: inactive
COc1ccc(-n2nc(C(=O)NCC(=O)N3CCN(Cc4ccccc4)CC3)c3ccccc3c2=O)cc1OC: inactive
Cc1ccc(C)c(C(=O)CCC(=O)N2CCN(c3cccc(C(F)(F)F)c3)CC2)c1: inactive
COc1ccc(/C=C2/Sc3ccc(C(=O)NCCCN4CCOCC4)cc3NC2=O)cc1OC: inactive
O=C(CN1CCN(C(=O)c2ccco2)CC1)Nc1cc(C(F)(F)F)ccc1Cl: inactive

###

- Tested on: emLYPLA1
- ASSAY_OVERVIEW: LYPLA1 and LYPLA2 inhibitors, biochemical, gel-based ABPP, fluorescence, recombinant and endogenous enzyme (AID 493105)
- TEST_CONDITIONS: fluorescent probe labeling, membrane fraction, at 20 µM
Calls of active or inactive are those of the source. No rule for the calls is given here.
Outcomes: t for active, f for inactive

Cc1c(Br)c([N+](=O)[O-])nn1CC(=O)Nc1ccc(Cc2ccncc2)cc1: f
COc1cccc(N=C2NC(=O)/C(=C/c3cc([N+](=O)[O-])ccc3O)S2)c1: f
CC1CC(C)CN(S(=O)(=O)c2ccc3c(c2)CC(C)N3C(=O)C2CCC2)C1 (stereo not given): f
N#Cc1c(N)nc(SCc2ccncc2)c(C#N)c1-c1cccs1: f
O=C(Nc1ccc2oc(-c3cccnc3)nc2c1)c1ccc2c(c1)OCCO2: f
NS(=O)(=O)c1ccc(CCNC(=O)c2cc([N+](=O)[O-])ccc2N2CCCCC2)cc1: f
CCC(=O)N1CCN(c2ccc(NC(=S)NC(=O)c3cccc([N+](=O)[O-])c3)cc2)CC1: f
COc1ccc(C(=O)NC(=S)Nc2ccc(N3CCOCC3)cc2)cc1Cl: f
O=C(c1ccc2n[nH]nc2c1)N1CCN(c2ccc(C(F)(F)F)cn2)CC1: t
Clc1cccc(N2CCN(CCNc3nc4ccccc4n4cnnc34)CC2)c1: f
Cc1ccc(OCC(=O)N2CCN(c3ccc([N+](=O)[O-])c(N4CCOCC4)c3)CC2)cc1: f
O=C(N1CCOCC1)n1nnc2ccccc21: t
O=C(COc1ccc(Br)cc1)N1CCN(c2ccc([N+](=O)[O-])c(N3CCCCC3)c2)CC1: f
COc1ccc(-n2nc(C(=O)NCC(=O)N3CCN(Cc4ccc5c(c4)OCO5)CC3)c3ccccc3c2=O)cc1OC: f
Cc1ccc(CN2CCN(/N=C/C=C/c3ccccc3[N+](=O)[O-])CC2)cc1: f
Cc1ccc([N+](=O)[O-])c(OCCCN2CCC(Cc3ccccc3)CC2)c1: f
COc1ccc(/C=C2/Sc3ccc(C(=O)NCCCN4CCOCC4)cc3NC2=O)cc1OC: f
N#Cc1ccccc1OCCCN1CCC(Cc2ccccc2)CC1: f
O=C(CCN1CCN(c2ccc([N+](=O)[O-])cc2)CC1)c1ccc(Cl)cc1: f
COc1ccc(OCC(O)CN2CCC(CN3C(=O)c4cccc5cccc(c45)C3=O)CC2)cc1 (stereo not given): f
O=C(CN1CCN(C(=O)c2ccco2)CC1)Nc1cc(C(F)(F)F)ccc1Cl: t
O=c1ccc2ccc(Oc3ccc([N+](=O)[O-])cc3Cl)cc2o1: f
CC1CCc2c(sc(NC(=O)CN3CCN(C(=O)c4ccco4)CC3)c2C#N)C1 (stereo not given): f
CC(=O)N1CCC2(CC1)C/C(=N\NC(=S)Nc1ccc(C)cc1)c1cc(O)ccc1O2: f
CCN(CC)S(=O)(=O)c1cccc(-c2nnc(SCCOc3ccccc3)o2)c1: f
Cc1ccc(C)c(C(=O)CCC(=O)N2CCN(c3cccc(C(F)(F)F)c3)CC2)c1: f
N#Cc1c(NC(=O)CSc2nc(N)cc(=O)[nH]2)sc2c1CCCC2: f
COc1ccc(-n2nc(C(=O)NCC(=O)N3CCN(Cc4ccccc4)CC3)c3ccccc3c2=O)cc1OC: f
COc1ccc(-n2c(C)c([N+](=O)[O-])c3ccc(O)c(CN4CCCCC4)c32)cc1: f
O=C(CCCCn1c(=O)[nH]c2ccccc2c1=O)N1CCN(c2cccc(C(F)(F)F)c2)CC1: f
O=C(COc1ccc(Cl)cc1)N1CCN(c2ccc([N+](=O)[O-])c(N3CCOCC3)c2)CC1: f
O=C(COc1ccc(Cl)cc1)N1CCN(c2cccc(C(F)(F)F)c2)CC1: f
COc1ccccc1-n1cc(C(=O)NCC(=O)N2CCN(Cc3ccccc3)CC2)c2ccccc2c1=O: f
CCC(=C/c1sc2ccc3ccccc3c2[n+]1C)/C=C1\Sc2ccc3ccccc3c2N1C: f
O=[N+]([O-])c1ccc(N2CCC(=NOCc3ccc(Cl)cc3)CC2)cc1: f
COc1ccc2c(c1)C(=O)[C@H](O)[C@@H](c1ccc(OC)c(Br)c1)O2: f
O=C(C1CCC(Cn2c(=S)[nH]c3ccccc3c2=O)CC1)N1CCN(c2ccccc2)CC1 (stereo not given): f
N#Cc1c(NC(=O)CN2CCN(C(=O)c3ccco3)CC2)sc2c1CCCCC2: f
COc1ccc(C(CNC(=O)COc2ccc(-c3ccccc3)cc2)N2CCOCC2)cc1 (stereo not given): f
O=C1N=C(N2CCN(Cc3ccccc3)CC2)S/C1=C/c1cccs1: f
